Where do the numbers come from? From patent US20240368668A1.

study_system: mouse ADAMTS7 (Mus musculus, UniProt Q68SA9)
Construct: Full-length mouse Adamts7 1-1857 (Uniprot Q68SA9, WT or E373Q catalytic mutant); expressed in transfected cells; host or cells: Human Coronary Artery Smooth Muscle Cells (HCA-SMC, Lonza), adenovirus 50 MOI
Sequence (Q68SA9 221-1657): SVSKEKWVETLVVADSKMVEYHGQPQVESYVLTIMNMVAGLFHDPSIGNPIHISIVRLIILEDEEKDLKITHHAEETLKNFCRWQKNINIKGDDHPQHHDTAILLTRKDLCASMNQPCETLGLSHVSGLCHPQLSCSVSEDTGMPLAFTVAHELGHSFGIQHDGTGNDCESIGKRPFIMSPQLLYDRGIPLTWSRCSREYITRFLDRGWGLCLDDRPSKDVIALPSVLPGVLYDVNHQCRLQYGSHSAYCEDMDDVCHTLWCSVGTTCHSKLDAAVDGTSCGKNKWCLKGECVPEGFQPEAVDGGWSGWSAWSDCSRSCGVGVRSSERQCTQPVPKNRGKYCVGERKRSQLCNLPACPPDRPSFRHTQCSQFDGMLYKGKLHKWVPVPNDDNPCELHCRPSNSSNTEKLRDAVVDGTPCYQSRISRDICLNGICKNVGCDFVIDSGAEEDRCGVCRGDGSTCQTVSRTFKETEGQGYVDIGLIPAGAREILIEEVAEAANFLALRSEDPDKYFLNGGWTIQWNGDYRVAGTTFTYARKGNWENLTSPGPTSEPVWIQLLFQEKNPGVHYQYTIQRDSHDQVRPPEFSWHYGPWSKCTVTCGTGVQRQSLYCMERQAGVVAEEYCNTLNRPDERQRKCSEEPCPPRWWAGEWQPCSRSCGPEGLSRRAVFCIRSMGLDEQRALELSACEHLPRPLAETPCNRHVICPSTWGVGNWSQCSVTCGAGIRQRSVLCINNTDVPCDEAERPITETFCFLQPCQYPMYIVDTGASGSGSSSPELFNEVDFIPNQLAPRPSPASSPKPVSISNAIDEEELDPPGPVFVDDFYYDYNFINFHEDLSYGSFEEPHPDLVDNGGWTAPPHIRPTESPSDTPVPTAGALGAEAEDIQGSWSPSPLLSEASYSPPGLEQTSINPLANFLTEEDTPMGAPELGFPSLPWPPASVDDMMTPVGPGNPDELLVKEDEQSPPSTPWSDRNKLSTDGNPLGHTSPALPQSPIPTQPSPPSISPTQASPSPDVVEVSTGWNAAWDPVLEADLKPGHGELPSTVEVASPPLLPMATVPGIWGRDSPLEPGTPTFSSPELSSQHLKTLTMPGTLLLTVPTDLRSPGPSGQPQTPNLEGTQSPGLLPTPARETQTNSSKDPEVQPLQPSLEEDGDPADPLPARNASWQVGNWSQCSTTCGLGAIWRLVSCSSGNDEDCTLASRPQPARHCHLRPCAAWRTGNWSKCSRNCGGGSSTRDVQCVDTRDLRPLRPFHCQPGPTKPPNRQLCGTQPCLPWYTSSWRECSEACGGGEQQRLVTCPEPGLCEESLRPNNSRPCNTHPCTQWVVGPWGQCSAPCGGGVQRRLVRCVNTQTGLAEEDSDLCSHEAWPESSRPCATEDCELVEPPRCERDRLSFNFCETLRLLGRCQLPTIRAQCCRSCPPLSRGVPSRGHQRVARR
experiment: TMT10 TAILS N-terminomics, SMC2 experiment (process replicates, trypsin/AspN digest)
Format: cell-based
assay_context: SMC2_TAILS HC; log fold change of N-terminal peptide, Ad-mADAMTS7 WT over Luc
Square brackets hold non-standard residues; d marks the D form. Ends that are not written are not given here. Met(O) = CS(=O)CC[C@H](N)C(=O)O
measurement_name: logFC.mWT.over.Luc

substance	observed_value
LOXL1_219 (VASAGVIYPYQPR; listed as Homo sapiens)	1.56
TTN_5975 (VKEPPVEFTKPL; listed as Homo sapiens)	3.15
VIM_276 (YESVAAKNLQ; listed as Homo sapiens)	0.88
POSTN_727 (IITGPEIKYTR; listed as Homo sapiens)	2.51
LTBP2_250 (SAAGEGTLAR; listed as Homo sapiens)	2.49
LTBP2_502 (LVENSVETRPPPWLPASPGHSLW; listed as Homo sapiens)	2.66
TNPO2_744 (VQ[Met(O)]VLNNLVEII[code n]RP[code n]TPKTLLE; listed as Homo sapiens)	4.08
VIM_333 (LKGTNESLER; listed as Homo sapiens)	3.75

1: VIM_314 (QESTEYR; listed as Homo sapiens)
2: MMP1_185 (FQPGPGIGG; listed as Homo sapiens)
[Q] Please state the entry with greater logFC.mWT.over.Luc among 1 and 2 . Kindly state the label of the option you pick.
[A] 1
(1: 3.06, 2: 1.08)
